# Tested on: HDAC (Mouse Liver Extract)
# Construct: Mouse liver enzyme (10 mg/ml) was diluted 1:6 with HDAC buffer
# assay.remarks: HDAC inhibition assay using Boc-Lys(Ac)-AMC substrate, mouse liver enzyme
# Type: biochemical
# applied.conditions: 10 μM
metric: HDAC Inhibition % (10 μM) (%)

Solved entries:
COc1ccc(/C(=C\c2ccc(/C=C/C(=O)NCc3ccc(C(=O)NO)cc3)cc2)C(=O)NC2CC2)cc1 [Example 95] ... 100.0
Nc1ccccc1NC(=O)/C=C/c1ccc(/C=C(/C(=O)NC2CC2)c2cccc(Cl)c2)cc1 [Example 66] ... 72.4
O=C(/C=C/c1ccc(/C=C(/C(=O)NC2CC2)c2ccccc2Cl)cc1)NO [Example 10] ... 100.0
Cc1ccc(/C(=C\c2ccc(/C=C/C(=O)NCCCCCC(=O)NO)cc2)C(=O)NC2CC2)cc1 [Example 81] ... 100.0
O=C(/C=C/c1ccc(/C=C(/C(=O)NC2CC2)c2ccccc2Cl)cc1)NCc1ccc(C(=O)NO)cc1 [Example 90] ... 100.0
O=C(/C=C/c1ccc(/C=C(/C(=O)N2CCOCC2)c2ccc(F)cc2)cc1)NO [Example 15] ... 99.3

a. COc1ccc(/C(=C\c2ccc(/C=C/C(=O)NCCCCCC(=O)NO)cc2)C(=O)NC2CC2)cc1F [Example 88]
b. COc1ccc(/C(=C\c2ccc(C(=O)Nc3ccccc3N)cc2)C(=O)NC2CC2)cc1 [Example 116]
-- ask Please indicate which item has the smaller measured HDAC Inhibition % (10 μM): a versus b # respond with the chosen item's label
-- reply b
(b: 55.7%, a: 98.8%)

---

# System: HDAC (Mouse Liver Extract)
# Construct: Mouse liver enzyme (10 mg/ml) was diluted 1:6 with HDAC buffer
# assay.remarks: HDAC inhibition assay using Boc-Lys(Ac)-AMC substrate, mouse liver enzyme
# Type: biochemical
# applied.conditions: 10 μM
# Text: Histone Deacetylase (HDAC) Inhibition Assay using Boc-Lys (Ac)-AMC Substrate: Inhibition of HDAC has been implicated to modulate transcription and to induce apoptosis or differentiation in cancer cells. The fluorometric assay provides a fast and fluorescence based method that eliminates radioactivity, extractions or chromatography, as used in traditional assays. The assay is based on two steps. […]
metric: HDAC Inhibition % (10 μM) (%)

P. O=C(NC1CC1)/C(=C/c1ccc(C(=O)NCc2ccc(C(=O)NO)cc2)cc1)c1cccc(Cl)c1
Q. Nc1ccccc1NC(=O)/C=C/c1ccc(/C=C(/C(=O)NC2CC2)c2ccccc2F)cc1
-- ask Could you point out whether the larger HDAC Inhibition % (10 μM) belongs to P or to Q ? # respond with the chosen item's label
-- reply P

P. Cc1ccc(/C(=C\c2ccc(/C=C/C(=O)NCc3ccc(C(=O)NO)cc3)cc2)C(=O)NC2CC2)cc1
Q. Nc1ccccc1NC(=O)/C=C/c1ccc(/C=C(/C(=O)NC2CC2)c2ccccc2)cc1
-- ask Could you point out whether the larger HDAC Inhibition % (10 μM) belongs to P or to Q ? # respond with the chosen item's label
-- reply P

---

The following compounds have recorded GI50 on HCT 116 (colon) cells.
metric: GI50 (µM)

Solved entries:
Nc1ccccc1NC(=O)c1ccc(/C=C(/C(=O)NC2CC2)c2cccs2)cc1 [Example 113] ... 11
Nc1ccccc1NC(=O)c1ccc(/C=C(/C(=O)NC2CC2)c2ccc(F)cc2)cc1 [Example 105] ... 1

P. Nc1ccccc1NC(=O)c1ccc(/C=C(/C(=O)NC2CC2)c2ccccc2F)cc1 [Example 109]
Q. Nc1ccccc1NC(=O)/C=C/c1ccc(/C=C(/C(=O)NC2CC2)c2ccc(F)c(F)c2)cc1 [Example 73]
-- ask Could you point out whether the larger GI50 belongs to P or to Q ? # respond with the chosen item's label
-- reply Q
(Q: 10.1 µM, P: 4.1 µM)
